molecular target: CK2α (Homo sapiens, UniProt P68400); test: ADP-Glo kinase assay, CK2 inhibition; format: biochemical; settings: 256 μM compound
Sequence (P68400 whole entry): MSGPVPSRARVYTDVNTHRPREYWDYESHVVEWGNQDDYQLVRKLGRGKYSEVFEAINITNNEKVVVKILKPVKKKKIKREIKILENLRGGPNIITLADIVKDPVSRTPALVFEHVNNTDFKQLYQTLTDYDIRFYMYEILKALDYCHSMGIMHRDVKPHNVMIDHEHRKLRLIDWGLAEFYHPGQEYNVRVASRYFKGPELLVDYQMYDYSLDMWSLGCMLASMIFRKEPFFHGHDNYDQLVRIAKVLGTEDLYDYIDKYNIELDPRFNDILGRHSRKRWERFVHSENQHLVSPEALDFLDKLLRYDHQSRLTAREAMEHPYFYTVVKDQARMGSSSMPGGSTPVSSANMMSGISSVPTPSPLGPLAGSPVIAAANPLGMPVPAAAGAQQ
assayEndpoint: inhibition at 256 µM (%)
Answers are plain numbers, in %.

Respectfully, I request inhibition at 256 µM for each entry included below.
1. COc1ccc(C(=O)Nc2ccc3[nH]c(=O)[nH]c3c2)cc1Br [Compound 2]
2. COc1ccc(C(=O)Nc2ccc(C(N)=O)cc2)cc1Br [Compound 1]
3. O=C(Cc1cccc2ccccc12)Nc1c[nH]c(=O)[nH]c1=O [Compound 4]
4. Cc1c(Cl)cccc1NC(=O)CC1NCCNC1=O (stereo not drawn) [Compound 5]
5. Nc1cc(=O)nc(SCc2ccccc2Cl)[nH]1 [Compound 6]
6. Cc1ccc(C(=O)Nc2c[nH]c(=O)[nH]c2=O)cc1C [Compound 3]

A:
1: 19; 2: 27; 3: 40; 4: 29; 5: 18; 6: 72

Where do these numbers come from? They come from paper PMC6983002.
